# STUDY_SYSTEM: T1, human 5T4-His protein (human, UniProt Q13641 32-355)
# T1 construct: also called recombinant 5T4 protein (human 5T4-his tag); human 5T4 protein; not shown: His tag
# T1 sequence (looked up): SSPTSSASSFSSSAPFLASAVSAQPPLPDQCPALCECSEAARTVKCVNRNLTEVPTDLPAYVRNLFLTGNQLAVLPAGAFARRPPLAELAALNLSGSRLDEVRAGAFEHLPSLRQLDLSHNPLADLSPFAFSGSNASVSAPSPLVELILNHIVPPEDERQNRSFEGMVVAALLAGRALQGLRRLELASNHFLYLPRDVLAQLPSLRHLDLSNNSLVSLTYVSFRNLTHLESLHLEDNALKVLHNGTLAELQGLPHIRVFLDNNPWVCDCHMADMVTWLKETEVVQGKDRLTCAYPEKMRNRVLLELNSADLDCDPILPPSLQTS
# PROTOCOL: SPR Biacore, Protein A capture
Assign kon to each entry below.
Write it as a number; the unit M⁻¹ s⁻¹ goes unstated.

Query string: Consider the binder shown here: Hu14G12-16 (antibody, V domains shown, humanized) VH: EVQLVQSGAEVKKPGATVKISCKASGYAFSSSWMNWVKQAPGKGLEWIGRIYREDGHTNYNGKFKGRATITADTSTTTAYMELSSLRSEDSAVYFCANGGAMDYWGQGTLVTVSS VL: DIQMTQSPSSLSASVGDRVTISCRASQDISNYLNWYQQKPGKTVKLLIYYTSRLHSGVPSRFSGSGSGTDYTFTISSLQPEDIATYFCQQDNTLPWTFGGGTKLEIK What is its recorded kon?
Result string: 269000

Query string: Consider the binder shown here: Hu14G12-4 (antibody, V domains shown, humanized) VH: EVQLVQSGAEVKKPGATVKISCKVSGYAFSSSWMNWVQQAPGKGLEWMGRIYREDGHTNYNGKFKGRVTITADTSTDTAYMELSSLRSEDTAVYYCATGGAMDYWGQGTLVTVSS VL: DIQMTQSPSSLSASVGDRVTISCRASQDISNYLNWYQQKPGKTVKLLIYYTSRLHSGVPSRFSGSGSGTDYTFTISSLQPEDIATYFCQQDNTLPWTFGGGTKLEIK What is its recorded kon?
Result string: 214000
